# procedure.text: NCI Yeast Anticancer Drug Screen. Data for the sgs1 mgt1 strain (AID 161);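 also: 0% = growth of cultures given vehicle only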
# recorded.conditions: S. cerevisiae sgs1 mgt1 strain, at 50.0 µM, hits give high values
# Experimental: Growth inhibition of yeast strains with defined genetic alterations is measured as a screen for potential anti-cancer activity. Selected strains with alterations in DNA damage repair or cell cycle control were exposed to compounds and growth inhibition was measured relative to vehicle treated controls. The strain used in this assay is sgs1 mgt1
Compounds without any hit were thinned out: in the full panel of roughly 79,000, 15% have a hit.

| compound | growth inhibition (%) |
| --- | --- |
| CCOC(=O)c1nc2ccc(C(F)(F)F)cc2nc1NCc1ccc(OC)c(OC)c1 | -28 |
| Cc1ccc(S(=O)(=O)/C(C#N)=C/NC(=S)Nc2ccc(S(N)(=O)=O)cc2)cc1 | -4.1 |
| COC(=O)C(=O)C(C(=O)C=C(C)C)c1nc2n(c1O)C(=N)N=N2 (stereo not given) | 14.3 |
| CC1=CC(C)(C)SC(=S)N1 | 19.8 |
| Cc1cccc(NC(=O)CSc2nnc(-c3ccc(N=Cc4ccc(Cl)cc4)cc3)o2)c1 | 9.25 |
| C=CCNC(=S)NNC(=O)c1ccncc1 | -21.6 |
| C=CCC12CC(COc3ccccc3C(N)=O)OC1=Nc1ccccc1NC2=O (stereo not given) | -27.6 |
| COCCOC(=O)c1ccc(C(N)=NC2CCCCC2)cc1 | 3.9 |
| O=C(Cc1ccccc1)NCO | -9.6 |
| NC(=Nc1ccc(S(=O)(=O)Nc2cnccn2)cc1)/N=C(/N)Nc1ccc(Br)cc1 | 15.7 |
